Test system: KM12 colon
Experiment: NCI-60 one-dose screen, 48 h (100 = growth as untreated, 0 = no growth, -100 = all killed)
Conditions: 10 µM
Compounds without any hit were thinned out: in the full panel of roughly 83,000, 20% have a hit.
Quick list: growth per entry.

Compound	Target under test	Measure unit	growth
COc1ccc2nc3cc(Cl)ccc3c(NCCNCC(C)O)c2c1 (stereo not given)	KM12 colon	%	25.5
Nc1ccc2cc(S(=O)(=O)O)cc(O)c2c1N=Nc1ccc(F)cc1	KM12 colon	%	107
COc1cc(C(=O)/C=C/c2cc(-c3cc(OC)c(OC)c(OC)c3)n[nH]2)cc(OC)c1OC	KM12 colon	%	-77.7
Cc1ccc(-c2n[nH]c(=O)c3noc(-c4ccc(C)cc4)c23)cc1	KM12 colon	%	35.9
Nc1c(C(=O)Nc2ccccc2Cl)sc2nc3c(cc12)C(=O)CCC3	KM12 colon	%	28.5
O=C(/C(=C/c1ccccc1)CN1CCCCC1)c1ccccc1	KM12 colon	%	-75.8
Nc1c(C(=O)Nc2cccc(Br)c2)sc2nc3c(cc12)C(O)CCC3 (stereo not given)	KM12 colon	%	22.8
COc1cc(-c2cc(/C=C/C(=O)c3ccc4c(c3)OCO4)[nH]n2)cc(OC)c1OC	KM12 colon	%	18
COc1cc2c(cc1OCCCN1CCN(c3ncnc4ccccc34)CC1)N=CC1CCCN1C2=O (stereo not given)	KM12 colon	%	-24.8
COc1ccc(-c2nc3sc(C4CC4)nn3c2/C=C2/C(=O)Nc3ccc(OC)cc32)cc1	KM12 colon	%	77.8
COc1ccc2c(c1)N(CCO)C1=C(C(=O)OC1)C2c1ccc(OC)c(OC)c1 (stereo not given)	KM12 colon	%	18.7
COc1ccc2c(c1)/C(=C\c1c[nH]c3ccc(OC)cc13)C(=O)N2	KM12 colon	%	10.1
COc1ccc(-c2ccc3cc(C(=O)Nc4ccc(O)c(C(=O)/C=C/c5cc(OC)c(OC)c(OC)c5)c4)ccc3c2)cc1	KM12 colon	%	104
N#CCCN(NC(=O)OCc1ccccc1)C(=O)OCc1ccccc1	KM12 colon	%	109
CN1CCC(CNc2cc(C3(C(=O)Nc4cc(C(=O)Nc5ccc(Cl)c(C(F)(F)F)c5)ccc4F)CC3)ncn2)CC1	KM12 colon	%	36.1
CCCN(CCC)CCC(O)c1cc2c(c3ccccc13)CCCC2 (stereo not given)	KM12 colon	%	101
CSc1nc(=O)n(Cc2ccc(Cl)cc2)c(=O)[nH]1	KM12 colon	%	108
COc1cccc(C(=O)Nc2ccc(CN3CCc4nc5cc(OC)c(OC)cc5cc43)cc2)c1	KM12 colon	%	16.4
CN(CCc1ccccn1)c1ccccc1	KM12 colon	%	104
CSc1nc(=O)n(Cc2ccc(F)cc2)c(=O)n1Cc1ccc(C)cc1	KM12 colon	%	96.4
COc1ccc(NC(=O)CSc2nc3ccccc3c(=O)n2CCc2ccccc2)cc1	KM12 colon	%	84.4
O=C1C(=O)c2ccccc2C(O)=C1CCCc1ccc(C2CCCCCC2)cc1	KM12 colon	%	37.8
O=c1[nH]c(-c2ccc(Cl)cc2)nc2sc3c(c12)CCCC3	KM12 colon	%	97.6
O=C(CC(C(=O)c1ccccc1)N1CCOCC1)c1ccccc1 (stereo not given)	KM12 colon	%	105
CC1(C)N=C(N)N=C(N)N1c1ccc(CCc2ccccc2)c(Cl)c1	KM12 colon	%	13.5
COc1ccc(Nc2ccnc(NCCNc3ccnc4cc(Cl)ccc34)n2)cc1	KM12 colon	%	62.2
Nc1nc(N)c(NC(=O)CNc2ccc(C(=O)O)cc2)c(N)n1	KM12 colon	%	114
COc1ccc(-c2cc(-c3ccc(N(C)C)cc3)c(C#N)c(N3CCCC3)n2)cc1	KM12 colon	%	95.4
NC1=NC(=O)C(c2ccccc2)(c2ccccc2)S1	KM12 colon	%	107
Cc1cc(O)c(C(C)(C)C)cc1Sc1cc(C(C)(C)C)c(O)cc1C	KM12 colon	%	47
